- Test system: U2OS
- experimentSummary: Multiplex assay against U2OS
- Format: toxicity, cell-based
- runParameters: human, 24 h, 10 µM, compound concentration 10 uM
I'd appreciate it if you could supply Population Pyknosed Nuclei (%) values for the items below.
One number for each entry, in %.

COc1ccccc1N1CCN(CCCCNC(=O)c2ccc3ccccc3c2)CC1.Cl; 31
COc1c(Nc2ccc(S(C)(=O)=O)nc2C)ncnc1OC1CCN(C(=O)OC(C)C)CC1 [ADP-597]; 8
O=C(Nc1cc(-c2ccccc2)nn1-c1ccccc1F)c1ccc([N+](=O)[O-])cc1; 9
c1cc(OCCCN2CCCCC2)ccc1CN1CCCCC1 [JNJ-5207852]; 8
CN1CCN(c2cc(-c3ccccc3)nc(N)n2)CC1; 6

Please state Population Pyknosed Nuclei (%) for every compound in the list that follows.
1. CN1C[C@H](C(=O)N[C@]2(C)O[C@@]3(O)[C@@H]4CCCN4C(=O)[C@H](Cc4ccccc4)N3C2=O)C[C@@H]2c3cccc4[nH]cc(c34)C[C@H]21.CS(=O)(=O)O [DIHYDROERGOTAMINE MESYLATE]
2. Cc1c(CC(=O)O)c2cccnc2n1Cc1ccc(S(C)(=O)=O)cc1C(F)(F)F [FEVIPIPRANT]

1: 8; 2: 8
